# assay protocol: Growth inhibition of human Gurav cells by SRB assay
# Format: functional
experimental endpoint: GI50 (µM)
One number for each entry, in µM.

# count of solved cases: 6
Cc1ccc2[nH]c(-c3ccc(-c4ccc(-c5ccccc5)cc4)cc3)nc2c1
3.31
COc1cc(-c2ccc(-c3ccc(-c4nc5c(O)cccc5[nH]4)cc3)cc2)cc(OC)c1OC
0.17
CN(C)c1ccc(-c2ccc(-c3ccc(-c4nc5ccccc5[nH]4)cc3)cc2)cc1
100
Clc1cccc(-c2ccc(-c3ccc(-c4nc5ccccc5[nH]4)cc3)cc2)c1
2.19
Oc1ccc(-c2ccc(-c3ccc(-c4nc5c(O)cccc5[nH]4)cc3)cc2)cc1
0.19
Oc1cccc2[nH]c(-c3ccc(-c4ccc(-c5ccc(C(F)(F)F)cc5)cc4)cc3)nc12
3.19

Fill in GI50 for each of the 2 molecules listed.
1. Cc1ccc2[nH]c(-c3ccc(-c4ccc(-c5ccc(N(C)C)cc5)cc4)cc3)nc2c1
2. COc1ccc(-c2ccc(-c3ccc(-c4nc5ccccc5[nH]4)cc3)cc2)cc1

6.24
38.1

I need GI50 for every entry listed below, if you could help.
1. FC(F)(F)c1ccc(-c2ccc(-c3ccc(-c4nc5ccccc5[nH]4)cc3)cc2)cc1
2. COc1ccc(-c2ccc(-c3ccc(-c4nc5c(O)cccc5[nH]4)cc3)cc2)cc1OC
3. CN(C)c1ccc(-c2ccc(-c3ccc(-c4nc5c(O)cccc5[nH]4)cc3)cc2)cc1

1: 39.1; 2: 1.11; 3: 8.21
